Molecular target: Pyruvate kinase PKLR (Homo sapiens)
Test: Secondary Concentration-Response Assay for Activators of Human Liver Pyruvate Kinase: for Probe SAR
Settings: purified hPK-L, ATP production, Kinase-Glo luminescence; series mostly up to 58.3 µM
Calls of active or inactive are those of the source. The call rests on the fitted dose curve; in most records, active means well fitted curve in the direction sought with a large enough effect; inconclusive means small, poorly fitted or top-dose-only effect, or effect the other way, or another doubt; inactive means no such curve, though single readings can be large or run the other way.
METRIC NAME: outcome

// known answers, use as guide
[
  {
    "ENTRY SMILES": "Cc1cc2c(s1)c1cnn(Cc3ccccc3F)c(=O)c1n2C",
    "REPORTED MEASUREMENT": "inactive"
  },
  {
    "ENTRY SMILES": "Cc1ccc(NS(=O)(=O)c2ccc3c(c2)CCC(=O)N3)cc1",
    "REPORTED MEASUREMENT": "inactive"
  },
  {
    "ENTRY SMILES": "O=C1CCc2cc(S(=O)(=O)Nc3ccc(Cl)c(Cl)c3)c(F)cc2N1",
    "REPORTED MEASUREMENT": "inactive"
  },
  {
    "ENTRY SMILES": "Cc1ccc(NS(=O)(=O)c2cc3c(cc2/C=C/c2ccccc2)NC(=O)CO3)cc1C",
    "REPORTED MEASUREMENT": "inactive"
  },
  {
    "ENTRY SMILES": "O=C1c2ccccc2C(=O)N1Cc1ccccn1",
    "REPORTED MEASUREMENT": "inactive"
  }
]

// O=C1CCc2cc([S+](=O)([O-])Nc3ccc(N[S+](=O)([O-])c4ccc5c(c4)CCC(=O)N5)cc3)ccc2N1 : outcome value = inactive

Form: compound = Cc1ccc(NS(=O)(=O)c2cccc(C(=O)O)c2)cc1C ; outcome = inactive
